# EXPERIMENTAL_SYSTEM: Acetylcholinesterase (Anopheles gambiae, UniProt Q869C3)
# Sequence (Q869C3 whole entry): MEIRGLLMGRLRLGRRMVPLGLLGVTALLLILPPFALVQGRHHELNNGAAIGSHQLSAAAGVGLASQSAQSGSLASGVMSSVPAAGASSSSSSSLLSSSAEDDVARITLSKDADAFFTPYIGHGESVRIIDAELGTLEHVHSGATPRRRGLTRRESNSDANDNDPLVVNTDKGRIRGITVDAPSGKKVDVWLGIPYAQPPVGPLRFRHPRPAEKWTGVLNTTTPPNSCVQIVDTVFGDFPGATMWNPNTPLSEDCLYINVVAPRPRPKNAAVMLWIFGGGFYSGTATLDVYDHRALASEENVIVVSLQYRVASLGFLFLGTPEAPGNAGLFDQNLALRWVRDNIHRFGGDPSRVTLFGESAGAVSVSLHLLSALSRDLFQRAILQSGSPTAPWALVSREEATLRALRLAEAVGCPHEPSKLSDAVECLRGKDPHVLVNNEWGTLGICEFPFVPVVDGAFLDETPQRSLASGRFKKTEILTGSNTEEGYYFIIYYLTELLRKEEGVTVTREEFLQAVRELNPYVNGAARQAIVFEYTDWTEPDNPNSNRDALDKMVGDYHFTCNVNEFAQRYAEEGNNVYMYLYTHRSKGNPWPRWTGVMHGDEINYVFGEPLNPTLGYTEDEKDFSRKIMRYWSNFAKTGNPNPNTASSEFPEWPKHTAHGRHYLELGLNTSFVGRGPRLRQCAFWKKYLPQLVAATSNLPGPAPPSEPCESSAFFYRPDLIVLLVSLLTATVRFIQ
# EXPERIMENT_SUMMARY: Inhibition of recombinant Anopheles gambiae wild type AChE after 10 mins by Ellman assay
pIC50: −log10 of the molar value.

- COMPOUND: "CC(C)n1cc(C(=O)C(F)F)cn1"
  VALUE_OPERATOR: "="
  pIC50: 6.45
- COMPOUND: "CC(C)Cn1cc(C(=O)CF)cn1"
  VALUE_OPERATOR: "<"
  pIC50: 5.00
- COMPOUND: "CC(C)n1cc(C(=O)C(F)(F)F)cn1"
  VALUE_OPERATOR: "="
  pIC50: 6.85
- COMPOUND: "CCC(CC)n1cc(C(=O)CF)cn1"
  VALUE_OPERATOR: "="
  pIC50: 6.45
- COMPOUND: "CC(C)Cn1cc(C(=O)C(F)F)cn1"
  VALUE_OPERATOR: "="
  pIC50: 5.52
- COMPOUND: "CC(C)(C)c1cccc(C(=O)C(F)(F)F)c1"
  VALUE_OPERATOR: "="
  pIC50: 7.27
- COMPOUND: "CCCC(C)n1cc(C(=O)CF)cn1 (configuration not stated)"
  VALUE_OPERATOR: "="
  pIC50: 5.45
- COMPOUND: "CC(C)Cn1cc(C(=O)C(F)(F)F)cn1"
  VALUE_OPERATOR: "="
  pIC50: 6.02
- COMPOUND: "CCC(C)n1cc(C(=O)C(F)(F)F)cn1 (configuration not stated)"
  VALUE_OPERATOR: "="
  pIC50: 8.61
- COMPOUND: "CCC(CC)n1cc(C(=O)C(F)F)cn1"
  VALUE_OPERATOR: "="
  pIC50: 9.00
- COMPOUND: "CCCC(C)n1cc(C(=O)C(F)(F)F)cn1 (configuration not stated)"
  VALUE_OPERATOR: "="
  pIC50: 8.43
- COMPOUND: "O=C(c1cnn(C2CCCC2)c1)C(F)(F)F"
  VALUE_OPERATOR: "="
  pIC50: 8.54
- COMPOUND: "CC(C)n1cc(C(=O)CF)cn1"
  VALUE_OPERATOR: "<"
  pIC50: 5.00
- COMPOUND: "CCC(CC)n1cc(C(=O)C(F)(F)F)cn1"
  VALUE_OPERATOR: "="
  pIC50: 8.56
- COMPOUND: "CCC(C)n1cc(C(=O)CF)cn1 (configuration not stated)"
  VALUE_OPERATOR: "="
  pIC50: 5.56
- COMPOUND: "O=C(CF)c1cnn(C2CCCC2)c1"
  VALUE_OPERATOR: "="
  pIC50: 5.23
- COMPOUND: "CCC(C)n1cc(C(=O)C(F)F)cn1 (configuration not stated)"
  VALUE_OPERATOR: "="
  pIC50: 7.58
- COMPOUND: "C[Si](C)(C)c1cccc(C(=O)C(F)(F)F)c1"
  VALUE_OPERATOR: "="
  pIC50: 6.07
- COMPOUND: "COP(=O)(OC)OC=C(Cl)Cl"
  VALUE_OPERATOR: "="
  pIC50: 6.49
- COMPOUND: "CNC(=O)Oc1ccccc1OC(C)C"
  VALUE_OPERATOR: "="
  pIC50: 6.74
- COMPOUND: "O=C(c1cnn(C2CCCC2)c1)C(F)F"
  VALUE_OPERATOR: "="
  pIC50: 6.97
- COMPOUND: "CCCC(C)n1cc(C(=O)C(F)F)cn1 (configuration not stated)"
  VALUE_OPERATOR: "="
  pIC50: 7.63

Entry source: ChEMBL document CHEMBL3621126
